Reference source: ChEMBL document CHEMBL1148701

Molecular target: Integrin alpha-5/beta-1 (Homo sapiens, UniProt P05556+P08648)
Sequence (P05556 21-798 limits assumed): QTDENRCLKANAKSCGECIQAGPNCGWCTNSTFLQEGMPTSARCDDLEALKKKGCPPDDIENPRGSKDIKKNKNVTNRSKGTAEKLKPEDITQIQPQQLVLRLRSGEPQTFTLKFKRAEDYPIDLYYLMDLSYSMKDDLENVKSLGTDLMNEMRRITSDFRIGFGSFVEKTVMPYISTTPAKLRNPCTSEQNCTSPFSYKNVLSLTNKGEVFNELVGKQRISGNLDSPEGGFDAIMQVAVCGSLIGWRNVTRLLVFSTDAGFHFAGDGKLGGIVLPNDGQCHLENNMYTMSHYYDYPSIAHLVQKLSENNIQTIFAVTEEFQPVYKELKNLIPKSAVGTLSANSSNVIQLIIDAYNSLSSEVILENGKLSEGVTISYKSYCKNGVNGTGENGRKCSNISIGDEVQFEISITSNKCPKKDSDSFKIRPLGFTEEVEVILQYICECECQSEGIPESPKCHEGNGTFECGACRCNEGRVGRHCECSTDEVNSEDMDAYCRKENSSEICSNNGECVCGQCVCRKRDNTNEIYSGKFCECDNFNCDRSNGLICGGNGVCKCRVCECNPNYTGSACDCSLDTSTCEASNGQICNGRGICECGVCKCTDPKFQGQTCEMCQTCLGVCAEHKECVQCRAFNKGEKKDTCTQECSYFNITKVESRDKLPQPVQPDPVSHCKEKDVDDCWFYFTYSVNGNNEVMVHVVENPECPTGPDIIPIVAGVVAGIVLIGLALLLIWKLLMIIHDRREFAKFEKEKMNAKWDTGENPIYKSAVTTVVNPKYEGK
Sequence (P08648 42-894 limits assumed): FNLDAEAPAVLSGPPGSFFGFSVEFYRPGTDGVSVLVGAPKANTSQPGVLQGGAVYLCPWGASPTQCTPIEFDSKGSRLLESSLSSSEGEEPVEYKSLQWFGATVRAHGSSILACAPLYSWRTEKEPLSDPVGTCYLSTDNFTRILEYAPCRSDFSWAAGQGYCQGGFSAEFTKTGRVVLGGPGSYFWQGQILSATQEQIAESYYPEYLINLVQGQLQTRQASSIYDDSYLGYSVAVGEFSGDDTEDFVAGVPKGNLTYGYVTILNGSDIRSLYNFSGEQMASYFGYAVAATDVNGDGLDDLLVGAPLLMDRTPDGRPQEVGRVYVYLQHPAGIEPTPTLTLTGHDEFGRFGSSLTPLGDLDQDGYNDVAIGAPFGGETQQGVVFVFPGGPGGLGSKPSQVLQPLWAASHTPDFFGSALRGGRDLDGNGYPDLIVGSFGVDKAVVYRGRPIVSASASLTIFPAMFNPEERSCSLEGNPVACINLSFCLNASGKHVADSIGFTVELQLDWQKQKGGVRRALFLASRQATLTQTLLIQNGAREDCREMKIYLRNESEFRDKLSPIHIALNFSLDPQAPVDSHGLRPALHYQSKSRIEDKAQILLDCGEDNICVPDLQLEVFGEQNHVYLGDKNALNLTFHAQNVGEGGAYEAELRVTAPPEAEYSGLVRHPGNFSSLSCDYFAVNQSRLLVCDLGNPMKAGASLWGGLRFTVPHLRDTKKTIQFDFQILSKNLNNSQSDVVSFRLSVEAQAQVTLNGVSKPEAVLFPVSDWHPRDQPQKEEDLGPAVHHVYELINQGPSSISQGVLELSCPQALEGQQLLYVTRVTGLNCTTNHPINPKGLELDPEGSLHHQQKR
Sequence (P08648 895-1049 limits assumed): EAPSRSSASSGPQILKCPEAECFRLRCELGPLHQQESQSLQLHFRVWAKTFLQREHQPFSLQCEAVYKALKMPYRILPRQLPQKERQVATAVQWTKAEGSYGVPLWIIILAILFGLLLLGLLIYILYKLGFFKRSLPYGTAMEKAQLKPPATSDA
Assay: Inhibition of integrin alpha-5-beta-1 receptor by ELISA
Assay type: protein-complex assay
Readout: IC50

Chem smiles	IC50
Cc1cc(C)c(S(=O)(=O)N[C@@H](CNC(=O)CO[C@@H]2C[C@@H](CNc3ccccn3)N(CCCc3ccccc3)C2)C(=O)O)c(C)c1	670 nM

### Prompt Consider the compound Cc1cc(C)c(S(=O)(=O)N[C@@H](CNC(=O)CO[C@@H]2C[C@@H](CNc3ccccn3)N(C(=O)CC(C)(C)C)C2)C(=O)O)c(C)c1 and give its recorded IC50.
### Response 6 nM

### Prompt Complete the entry with IC50 for COc1ccnc(NC[C@@H]2C[C@@H](OCC(=O)NC[C@H](NC(=O)C3(C)CCCCC3)C(=O)O)CN2C(=O)OCc2ccccc2)c1
### Response 0.8 nM

### Prompt Output IC50 of COC(=O)N1C[C@H](OCC(=O)NC[C@H](NS(=O)(=O)c2c(C)cc(C)cc2C)C(=O)O)C[C@H]1CNc1ccccn1
### Response 15 nM

### Prompt Output measured IC50 for this item: COc1ccnc(NC[C@@H]2C[C@@H](OCC(=O)NC[C@H](NC(=O)c3c(C)cc(C)cc3C)C(=O)O)CN2C(=O)CC(C)(C)C)c1
### Response 0.55 nM

###

Target: Integrin alpha-5/beta-1 (Homo sapiens, UniProt P05556+P08648)
Experiment: Inhibition of integrin alpha-5-beta-1 receptor by ELISA
Type: protein-complex assay
Readout: pIC50
// pIC50: -log10(molar conc.)

Chem smiles	Numeric value
Cc1cc(C)c(S(=O)(=O)N[C@@H](CNC(=O)CO[C@@H]2C[C@@H](CNc3cc(Cl)ccn3)N(C(=O)OCc3ccccc3)C2)C(=O)O)c(C)c1	6.35

### Prompt Identify measured pIC50 corresponding to CC1(C(=O)N[C@@H](CNC(=O)CO[C@@H]2C[C@@H](CNc3ccccn3)N(C(=O)OCc3ccccc3)C2)C(=O)O)CCCCC1
### Response 8.77

### Prompt Dear colleague, please send me the reported pIC50 for Cc1cc(C)c(S(=O)(=O)N[C@@H](CNC(=O)CO[C@@H]2C[C@@H](CNc3cccc(C)n3)N(C(=O)OCc3ccccc3)C2)C(=O)O)c(C)c1 when you can.
### Response 6.64

### Prompt Return pIC50 (reported value) for this compound: COc1ccnc(NC[C@@H]2C[C@@H](OCC(=O)NC[C@H](NC(=O)c3c(C)cc(C)cc3C)C(=O)O)CN2C(=O)OCc2ccccc2)c1
### Response 9.27

### Prompt Return reported pIC50. Input compound: O=C(CO[C@@H]1C[C@@H](CNc2ccccn2)N(C(=O)OCc2ccccc2)C1)NC[C@H](NC(=O)c1ccccc1)C(=O)O
### Response 6.81

### Prompt Provide pIC50 value for the following compound: O=C(CO[C@@H]1C[C@@H](CNc2ccccn2)N(C(=O)OCc2ccccc2)C1)NC[C@H](NS(=O)(=O)c1ccccc1)C(=O)O
### Response 7.07

###

Target: Integrin alpha-V/beta-5 (Homo sapiens, UniProt P06756+P18084)
Sequence (P06756 31-889 limits assumed): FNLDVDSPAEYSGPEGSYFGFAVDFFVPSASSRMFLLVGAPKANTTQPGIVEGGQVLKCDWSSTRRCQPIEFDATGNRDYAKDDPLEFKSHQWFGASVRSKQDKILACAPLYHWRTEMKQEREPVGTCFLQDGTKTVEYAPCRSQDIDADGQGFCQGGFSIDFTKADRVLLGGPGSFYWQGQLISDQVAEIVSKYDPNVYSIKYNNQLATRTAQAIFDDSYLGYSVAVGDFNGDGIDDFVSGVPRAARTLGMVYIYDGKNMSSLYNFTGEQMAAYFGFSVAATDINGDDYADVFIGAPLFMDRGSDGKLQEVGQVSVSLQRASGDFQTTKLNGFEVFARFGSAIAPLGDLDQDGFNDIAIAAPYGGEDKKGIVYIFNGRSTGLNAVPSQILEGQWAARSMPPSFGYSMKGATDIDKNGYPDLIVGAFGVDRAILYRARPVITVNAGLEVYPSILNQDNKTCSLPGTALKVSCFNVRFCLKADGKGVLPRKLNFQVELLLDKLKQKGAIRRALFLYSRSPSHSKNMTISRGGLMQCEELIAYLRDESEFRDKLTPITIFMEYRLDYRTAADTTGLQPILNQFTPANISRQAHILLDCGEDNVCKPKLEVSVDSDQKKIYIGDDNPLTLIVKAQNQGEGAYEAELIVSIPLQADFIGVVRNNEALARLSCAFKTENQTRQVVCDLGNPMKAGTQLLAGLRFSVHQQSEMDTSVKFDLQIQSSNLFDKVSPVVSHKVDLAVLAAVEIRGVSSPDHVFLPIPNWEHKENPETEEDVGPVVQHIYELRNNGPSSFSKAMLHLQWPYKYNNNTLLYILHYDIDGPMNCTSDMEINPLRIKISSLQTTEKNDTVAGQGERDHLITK
Sequence (P06756 891-1048 limits assumed): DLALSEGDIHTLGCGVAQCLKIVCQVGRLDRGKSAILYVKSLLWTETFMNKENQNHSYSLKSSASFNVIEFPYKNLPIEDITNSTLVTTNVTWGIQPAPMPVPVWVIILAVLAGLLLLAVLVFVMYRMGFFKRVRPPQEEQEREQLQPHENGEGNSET
Sequence (P18084 24-799 limits assumed): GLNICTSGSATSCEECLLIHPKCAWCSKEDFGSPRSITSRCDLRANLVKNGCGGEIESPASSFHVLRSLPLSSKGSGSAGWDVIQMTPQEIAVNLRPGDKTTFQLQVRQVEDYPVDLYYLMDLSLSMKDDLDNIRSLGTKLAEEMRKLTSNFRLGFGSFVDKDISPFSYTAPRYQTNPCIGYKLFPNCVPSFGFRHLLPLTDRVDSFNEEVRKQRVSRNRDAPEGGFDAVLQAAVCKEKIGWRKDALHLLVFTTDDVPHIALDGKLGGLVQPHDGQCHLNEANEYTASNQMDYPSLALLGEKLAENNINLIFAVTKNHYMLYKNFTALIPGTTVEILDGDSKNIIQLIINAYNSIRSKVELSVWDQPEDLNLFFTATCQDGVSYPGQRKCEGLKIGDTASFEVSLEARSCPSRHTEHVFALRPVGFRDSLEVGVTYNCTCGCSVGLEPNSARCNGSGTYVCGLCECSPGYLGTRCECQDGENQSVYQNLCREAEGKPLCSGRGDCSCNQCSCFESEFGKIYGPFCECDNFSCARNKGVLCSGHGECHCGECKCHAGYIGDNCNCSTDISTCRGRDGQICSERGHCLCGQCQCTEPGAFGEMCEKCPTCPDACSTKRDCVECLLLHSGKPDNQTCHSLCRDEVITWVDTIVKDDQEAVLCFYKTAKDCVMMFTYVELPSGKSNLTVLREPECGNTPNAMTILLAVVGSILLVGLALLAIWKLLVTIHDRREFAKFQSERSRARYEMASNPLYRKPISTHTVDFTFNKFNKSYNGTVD
Assay: Inhibition of integrin alpha-V-beta-5 receptor by ELISA
pIC50: −log10 of the molar value.
Decision: pIC50 compared against 6; not below it gives true (1), below it gives false (0).

### Prompt Textbook exercise: given the entry O=C(CO[C@@H]1C[C@@H](CNc2ccccn2)N(C(=O)OCc2ccccc2)C1)NC[C@H](NS(=O)(=O)c1ccccc1)C(=O)O , state whether its pIC50 is greater than or equal to 6.
### Response true (1)

### Prompt API: above_or_equal(metric=pIC50, cutoff=6) for item COc1ccnc(NC[C@@H]2C[C@@H](OCC(=O)NC[C@H](NS(=O)(=O)c3c(C)cc(C)cc3C)C(=O)O)CN2C(=O)OCc2ccccc2)c1
### Response true (1)

### Prompt Test whether the molecule COc1ccnc(NC[C@@H]2C[C@@H](OCC(=O)NC[C@H](NC(=O)C3(C)CCCCC3)C(=O)O)CN2C(=O)CC(C)(C)C)c1 records pIC50 of 6 or higher.
### Response false (0)

### Prompt Does the molecule COc1ccnc(NC[C@@H]2C[C@@H](OCC(=O)NC[C@H](NC(=O)C3(C)CCCCC3)C(=O)O)CN2C(=O)OCc2ccccc2)c1 have recorded pIC50 that is 6 or more?
### Response false (0)

### Prompt // inclusive: pIC50 at least 6? input: Cc1cc(C)c(C(=O)N[C@@H](CNC(=O)CO[C@@H]2C[C@@H](CNc3ccccn3)N(C(=O)CC(C)(C)C)C2)C(=O)O)c(C)c1
### Response false (0)

### Prompt // inclusive: pIC50 at least 6? input: CC1(C(=O)N[C@@H](CNC(=O)CO[C@@H]2C[C@@H](CNc3ccccn3)N(C(=O)OCc3ccccc3)C2)C(=O)O)CCCCC1
### Response true (1)

### Prompt Kindly determine if pIC50 recorded for COc1ccnc(NC[C@@H]2C[C@@H](OCC(=O)NC[C@H](NC(=O)c3c(C)cc(C)cc3C)C(=O)O)CN2C(=O)OCc2ccccc2)c1 is above or exactly 6.
### Response false (0)

### Prompt Is the recorded value of pIC50 equal to or greater than 6 for this molecule? COc1ccnc(NC[C@@H]2C[C@@H](OCC(=O)NC[C@H](NC(=O)c3c(C)cc(C)cc3C)C(=O)O)CN2C(=O)CC(C)(C)C)c1
### Response false (0)

### Prompt API: above_or_equal(metric=pIC50, cutoff=6) for item Cc1cc(C)c(S(=O)(=O)N[C@@H](CNC(=O)CO[C@@H]2C[C@@H](CNc3ccccn3)N(C(=O)OCc3ccccc3)C2)C(=O)O)c(C)c1
### Response true (1)
